System: Staphylococcus aureus
Assay: Antibacterial activity against methicillin-resistant Staphylococcus aureus USA300 assessed as reduction in bacterial cell growth incubated for 18 to 20 hrs by broth microdilution method
Type: functional
observed_property: MIC (µg/mL)
Numbers only, in µg/mL.

Examples with answers:
C/C(=N\NC(=N)N)c1sc(-c2ccc(C#CC3(O)CCCCC3)cc2)nc1C ... 4
C/C(=N\NC(=N)N)c1sc(-c2ccc(C#Cc3ccc(C)s3)cc2)nc1C ... 8
C/C(=N\NC(=N)N)c1sc(-c2ccc(C#CC(C)(C)O)cc2)nc1C ... 4
C/C(=N\NC(=N)N)c1sc(-c2ccc(C#Cc3ccc(N)cc3)cc2)nc1C ... 4
C/C(=N\NC(=N)N)c1sc(-c2ccc(C#Cc3cccc(O)c3)cc2)nc1C ... 4

Switching to the query record.
Would you kindly share the measured MIC for `C/C(=N\NC(=N)N)c1sc(-c2ccc(C#Cc3cccs3)cc2)nc1C` ?
4

###

I'd be grateful if you could share measured MBC for these entries.
Test system: Listeria monocytogenes
Test: Bactericidal activity against Listeria monocytogenes ATCC 19111 assessed as reduction in bacterial cell growth incubated for 18 to 20 hrs followed by re-plating on tryptic soy agar plates at 37 degC for 18 hrs by broth microdilution assay
Assay type: functional

Give MBC for each of the items listed below.
1. C/C(=N\NC(=N)N)c1sc(-c2ccc(C#CC3(O)CCCCC3)cc2)nc1C
2. C/C(=N\NC(=N)N)c1sc(-c2ccc(C#Cc3cccc(O)c3)cc2)nc1C
3. CC(=O)NC[C@H]1CN(c2ccc(N3CCOCC3)c(F)c2)C(=O)O1

1. 8 µg/mL
2. 64 µg/mL
3. 32 µg/mL

###

System: Enterococcus faecium
Assay: Bactericidal activity against vancomycin resistant Enterococcus faecium ATCC 700221 assessed as reduction in bacterial cell growth incubated for 18 to 20 hrs followed by re-plating on tryptic soy agar plates at 37 degC for 18 hrs by broth microdilution assay
Format: functional
observed_property: MBC (µg/mL)
Give bare numbers, in µg/mL.

Examples with answers:
C/C(=N\NC(=N)N)c1sc(-c2ccc(C#Cc3cccs3)cc2)nc1C ... 8
C/C(=N\NC(=N)N)c1sc(-c2ccc(C#Cc3cccc(O)c3)cc2)nc1C ... 1
C/C(=N\NC(=N)N)c1sc(-c2ccc(C#CC(C)(C)O)cc2)nc1C ... 4
C/C(=N\NC(=N)N)c1sc(-c2ccc(C#Cc3ccc(C)s3)cc2)nc1C ... 4
CC(=O)NC[C@H]1CN(c2ccc(N3CCOCC3)c(F)c2)C(=O)O1 ... 8

Switching to the query record.
Item `C/C(=N\NC(=N)N)c1sc(-c2ccc(C#Cc3ccc(N)cc3)cc2)nc1C` with Enterococcus faecium - MBC?
16

###

Test system: Staphylococcus epidermidis
Assay: Bactericidal activity against methicillin resistant Staphylococcus epidermidis NRS101 assessed as reduction in bacterial cell growth incubated for 18 to 20 hrs followed by re-plating on tryptic soy agar plates at 37 degC for 18 hrs by broth microdilution assay
Type: functional
I'd be grateful if you could share measured MBC for these entries.
In your response, the unit should come after the numeric value.

Examples with answers:
C/C(=N\NC(=N)N)c1sc(-c2ccc(C#Cc3cccc(O)c3)cc2)nc1C ... 2 µg/mL
CC(=O)NC[C@H]1CN(c2ccc(N3CCOCC3)c(F)c2)C(=O)O1 [LINEZOLID] ... 16 µg/mL
C/C(=N\NC(=N)N)c1sc(-c2ccc(C#CC(C)(C)O)cc2)nc1C ... 4 µg/mL
C/C(=N\NC(=N)N)c1sc(-c2ccc(C#CC3(O)CCCCC3)cc2)nc1C ... 4 µg/mL
C/C(=N\NC(=N)N)c1sc(-c2ccc(C#Cc3ccc(C)s3)cc2)nc1C ... 4 µg/mL

Give MBC for each of the items listed below.
1. C/C(=N\NC(=N)N)c1sc(-c2ccc(C#Cc3cccs3)cc2)nc1C
2. C/C(=N\NC(=N)N)c1sc(-c2ccc(C#Cc3ccc(N)cc3)cc2)nc1C

1. 1 µg/mL
2. 2 µg/mL

###

Test system: Listeria monocytogenes
Assay: Antibacterial activity against Listeria monocytogenes ATCC 19111 assessed as reduction in bacterial cell growth incubated for 18 to 20 hrs by broth microdilution method
Format: functional
I'd be grateful if you could share measured MIC for these entries.
Numbers only, in µg/mL.

Examples with answers:
C/C(=N\NC(=N)N)c1sc(-c2ccc(C#Cc3cccs3)cc2)nc1C ... 8
C/C(=N\NC(=N)N)c1sc(-c2ccc(C#Cc3cccc(O)c3)cc2)nc1C ... 8
C/C(=N\NC(=N)N)c1sc(-c2ccc(C#Cc3ccc(C)s3)cc2)nc1C ... 8

Give MIC for each of the items listed below.
1. CN[C@H](CC(C)C)C(=O)N[C@H]1C(=O)N[C@@H](CC(N)=O)C(=O)N[C@H]2C(=O)N[C@H]3C(=O)N[C@H](C(=O)N[C@H](C(=O)O)c4cc(O)cc(O)c4-c4cc3ccc4O)[C@H](O)c3ccc(c(Cl)c3)Oc3cc2cc(c3O[C@@H]2O[C@H](CO)[C@@H](O)[C@H](O)[C@H]2O[C@H]2C[C@](C)(N)[C@H](O)[C@H](C)O2)Oc2ccc(cc2Cl)[C@H]1O [VANCOMYCIN]
2. C/C(=N\NC(=N)N)c1sc(-c2ccc(C#CC3(O)CCCCC3)cc2)nc1C
3. C/C(=N\NC(=N)N)c1sc(-c2ccc(C#CC(C)(C)O)cc2)nc1C

[1, 4, 4]

Item `C/C(=N\NC(=N)N)c1sc(-c2ccc(C#Cc3ccc(N)cc3)cc2)nc1C` with Listeria monocytogenes - MIC?
32

###

I'd be grateful if you could share measured MIC for these entries.
Tested on: Staphylococcus aureus
Test: Antibacterial activity against Staphylococcus aureus NRS107 assessed as reduction in bacterial cell growth incubated for 18 to 20 hrs by broth microdilution method
Type: functional
One number for each entry, in µg/mL.

C/C(=N\NC(=N)N)c1sc(-c2ccc(C#Cc3ccc(C)s3)cc2)nc1C ... 4
C/C(=N\NC(=N)N)c1sc(-c2ccc(C#Cc3ccc(N)cc3)cc2)nc1C ... 4
C/C(=N\NC(=N)N)c1sc(-c2ccc(C#CC3(O)CCCCC3)cc2)nc1C ... 4
CC(=O)NC[C@H]1CN(c2ccc(N3CCOCC3)c(F)c2)C(=O)O1 [LINEZOLID] ... 1
C/C(=N\NC(=N)N)c1sc(-c2ccc(C#Cc3cccc(O)c3)cc2)nc1C ... 4
C/C(=N\NC(=N)N)c1sc(-c2ccc(C#Cc3cccs3)cc2)nc1C ... 2

Switching to the query record.
Item `C/C(=N\NC(=N)N)c1sc(-c2ccc(C#CC(C)(C)O)cc2)nc1C` with Staphylococcus aureus - MIC?
4

###

Tested on: Staphylococcus aureus
Assay: Antibacterial activity against vancomycin resistant Staphylococcus aureus VRS10 assessed as reduction in bacterial cell growth incubated for 18 to 20 hrs by broth microdilution method
Type: functional
observed_property: MIC (µg/mL)
One number for each entry, in µg/mL.

C/C(=N\NC(=N)N)c1sc(-c2ccc(C#Cc3ccc(C)s3)cc2)nc1C ... 4
C/C(=N\NC(=N)N)c1sc(-c2ccc(C#Cc3cccc(O)c3)cc2)nc1C ... 4

Give MIC for each of the items listed below.
1. C/C(=N\NC(=N)N)c1sc(-c2ccc(C#Cc3ccc(N)cc3)cc2)nc1C
2. C/C(=N\NC(=N)N)c1sc(-c2ccc(C#CC3(O)CCCCC3)cc2)nc1C
3. CC(=O)NC[C@H]1CN(c2ccc(N3CCOCC3)c(F)c2)C(=O)O1 [LINEZOLID]
4. C/C(=N\NC(=N)N)c1sc(-c2ccc(C#CC(C)(C)O)cc2)nc1C
5. C/C(=N\NC(=N)N)c1sc(-c2ccc(C#Cc3cccs3)cc2)nc1C

1. 16
2. 2
3. 1
4. 4
5. 8

###

Assay: Solubility of compound in PBS after 2 hrs by turbidity based absorbance analysis
Type: physicochemical
observed_property: solubility kinetic at 2 h

Examples with answers:
C/C(=N\NC(=N)N)c1sc(-c2ccc(C#Cc3ccc(C)s3)cc2)nc1C ... 12 µM
C/C(=N\NC(=N)N)c1sc(-c2ccc(C#Cc3ccc(N)cc3)cc2)nc1C ... 105 µM
C/C(=N\NC(=N)N)c1sc(-c2ccc(C#Cc3ccccc3)cc2)nc1C ... 2.5 µM

Switching to the query record.
Would you kindly share the measured solubility kinetic at 2 h for `C/C(=N\NC(=N)N)c1sc(-c2ccc(C#Cc3cccc(O)c3)cc2)nc1C` ?
55 µM

###

Tested on: Staphylococcus aureus
Assay: Antibacterial activity against vancomycin resistant Staphylococcus aureus VRS12 assessed as reduction in bacterial cell growth incubated for 18 to 20 hrs by broth microdilution method
Format: functional
I'd be grateful if you could share measured MIC for these entries.
One number for each entry, in µg/mL.

Examples with answers:
CN[C@H](CC(C)C)C(=O)N[C@H]1C(=O)N[C@@H](CC(N)=O)C(=O)N[C@H]2C(=O)N[C@H]3C(=O)N[C@H](C(=O)N[C@H](C(=O)O)c4cc(O)cc(O)c4-c4cc3ccc4O)[C@H](O)c3ccc(c(Cl)c3)Oc3cc2cc(c3O[C@@H]2O[C@H](CO)[C@@H](O)[C@H](O)[C@H]2O[C@H]2C[C@](C)(N)[C@H](O)[C@H](C)O2)Oc2ccc(cc2Cl)[C@H]1O ... 64
C/C(=N\NC(=N)N)c1sc(-c2ccc(C#Cc3ccc(N)cc3)cc2)nc1C ... 16

Switching to the query record.
Item `CC(=O)NC[C@H]1CN(c2ccc(N3CCOCC3)c(F)c2)C(=O)O1` with Staphylococcus aureus - MIC?
1

Values compiled from ChEMBL document CHEMBL4393697.
